Let's look at some compounds and their measured solubility.
Assay: Solubility of compound at pH 7 measured for 2 to 5 days by HPLC analysis
Assay type: physicochemical
Conditions: buffer, time 2-5 day

Example results:
[
  {
    "Smiles text": "Cn1cc(-c2ccnc3[nH]ccc23)c(-c2ccc(F)cn2)n1",
    "Data value": "> 400 µM"
  },
  {
    "Smiles text": "Cn1cc(-c2ccnc3[nH]ccc23)c(-c2ccc(F)cc2)n1",
    "Data value": "< 4 µM"
  }
]

Here is the next item to consider.
Q: Item "Cn1cc(-c2ccnc3[nH]ncc23)c(-c2ccc(F)cc2)n1" has what recorded solubility?
Ans: 8.7 µM
